System: SNB-19 CNS
Protocol text: NCI-60 one-dose screen, 48 h (100 = growth as untreated, 0 = no growth, -100 = all killed)
Measurement conditions: 10 µM unless noted
About 83,000 compounds went through this panel and 20% of them were active in at least one assay; those are over-represented in the sample as a whole.
growth vs 50%: less than gives label 1; not less than gives label 0.

Check out these entries, answers already filled in.
Chemical structure	Cat
O=C(COc1cccc2cccnc12)Nc1ccc(C(=O)/C=C/c2ccc(Cl)cc2)cc1	label 0
CS(=O)(=O)c1nccc(-c2c(-c3ccc(F)c(OCCc4ccc(F)cc4)c3)nc3sccn23)n1	label 1
O=C1c2c(c3c4cc(Br)ccc4[nH]c3c3ccc4ccccc4c23)C(=O)N1CCN1CCCCC1	label 1

Query :: Check if growth falls below 50% for O=C(CCCCCCN1CC(=O)N2[C@@H](c3cc(F)cc(F)c3)c3[nH]c4ccccc4c3C[C@H]2C1=O)NO .
Result :: label 0

Query :: Check if growth falls below 50% for COc1ccc(NC(=O)Cn2cc(CN3C(=O)c4ccc([N+](=O)[O-])cc4C3=O)nn2)cc1 .
Result :: label 0

Query :: Check if growth falls below 50% for CSc1ccc(/C(=N/N=C(N)N)c2ccccc2)cc1 .
Result :: label 1

Query :: Check if growth falls below 50% for COc1cc(OC)c(S(N)(=O)=O)cc1C(=O)/C=C/c1ccccc1 .
Result :: label 1

Query :: Check if growth falls below 50% for COCCOc1ccc(-c2csc(NC(C)=O)n2)cc1NS(=O)(=O)c1cccc2c(N(C)C)cccc12 .
Result :: label 0

Query :: Check if growth falls below 50% for COc1cc2oc(-c3cccc(NC(=O)c4cc(NC(=O)[C@H](C)N)ccc4Cl)c3)cc(=O)c2c(OC)c1OC .
Result :: label 0

Data origin, for the record: PubChem BioAssay (NCI)
